B1: PhoQ; a variant is named by its letters at X, in order, P23837 (parent)
chain: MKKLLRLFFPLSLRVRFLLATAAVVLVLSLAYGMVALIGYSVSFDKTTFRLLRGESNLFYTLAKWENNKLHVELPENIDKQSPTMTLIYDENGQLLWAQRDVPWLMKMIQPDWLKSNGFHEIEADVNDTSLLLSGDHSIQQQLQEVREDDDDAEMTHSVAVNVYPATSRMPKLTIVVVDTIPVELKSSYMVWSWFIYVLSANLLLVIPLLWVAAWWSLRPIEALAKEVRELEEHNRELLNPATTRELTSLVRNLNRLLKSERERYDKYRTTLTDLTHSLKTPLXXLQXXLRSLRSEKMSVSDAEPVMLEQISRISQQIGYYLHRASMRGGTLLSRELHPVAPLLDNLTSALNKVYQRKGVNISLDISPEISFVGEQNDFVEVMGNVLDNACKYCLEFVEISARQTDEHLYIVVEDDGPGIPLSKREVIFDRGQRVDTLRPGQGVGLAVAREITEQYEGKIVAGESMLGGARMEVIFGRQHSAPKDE

Variants of: B1
EXPERIMENT: enrichment ratio after two sorts for PhoP signalling (ratio (wild type AVST 3.29)); higher = more functional
RUN_PARAMETERS: with PhoP (E. coli)
The full ranking holds about 140,000 sequences; the median of “enrichment ratio after two sorts for PhoP signalling” is about 0, and the highest 2% start at about 11. The sample holds the highest values, similar sequences and a random draw of the others, so the mix is not that of the screen.
For each entry below, report its enrichment ratio value.

For the variant shown here, WILV , give the reported enrichment ratio.
≤ 0.25

For the variant shown here, TCEN , give the reported enrichment ratio.
0.333

For the variant shown here, TCQP , give the reported enrichment ratio.
≤ 0.25

For the variant shown here, SCQA , give the reported enrichment ratio.
≤ 0.25

For the variant shown here, CTTS , give the reported enrichment ratio.
16.8

For the variant shown here, MTCL , give the reported enrichment ratio.
12.8

For the variant shown here, IGNC , give the reported enrichment ratio.
≤ 0.25

For the variant shown here, TCDN , give the reported enrichment ratio.
≤ 0.25

For the variant shown here, NCII , give the reported enrichment ratio.
≤ 0.25

For the variant shown here, KCHH , give the reported enrichment ratio.
≤ 0.25

For the variant shown here, TTHH , give the reported enrichment ratio.
11.8

For the variant shown here, YLKI , give the reported enrichment ratio.
≤ 0.25
